# assay remarks: NCI Yeast Anticancer Drug Screen. Data for the wt1 strain (AID 149);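 note: 0% = growth of vehicle-treated wt1 cultures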
# setup conditions: S. cerevisiae wt1 strain (SPY 50644) growth inhibition; at 100.0 µM
Compounds without any hit were thinned out: in the full panel of roughly 79,000, 15% have a hit. The source made the active and inactive calls. Cut-off read from the data, not from the text of the source: active = growth inhibition above about 70%; inactive = the rest.
One label from this list, please: active, inactive

These solved cases illustrate the format of a correct answer.
In: Outcome logged for CNC1C(OC2C(OC3C(O)C(O)C(N=C(N)N)C(O)C3N=C(N)N)OC(C)C2(O)CO)OC(CO)C(O)C1O (stereo unspecified) in this assay:
Out: inactive

In: Check the results log: what was the call for `CO[C@H]1C[C@](C)(O)Cc2cc3c(c(O)c21)C(=O)c1c(O)cc2c(c1C3=O)O[C@@H]1O[C@@]2(C)[C@H](O)[C@@H](N(C)C)[C@@H]1O` ?
Out: inactive

# next compound below
In: # fetch the recorded call for Nc1ccccc1CC(O)C(=O)O (stereo unspecified) here
Out: active

###

compounds and their reported growth inhibition
# assay remarks: NCI Yeast Anticancer Drug Screen. Data for the rad18 strain (AID 177)
# setup conditions: S. cerevisiae rad18 mutant growth inhibition; at 11.0 µM; hits give high values
About 79,000 compounds went through this panel and 15% of them were active in at least one assay; those are over-represented in the sample as a whole.
State just the number; it will be interpreted in %.

Guide cases for growth inhibition, answers given:
In: Requested field: growth inhibition. Item: `CSc1nc(=S)[nH]c2c1c(C)nn2-c1ccccc1`
Out: 4

In: Given the entry `CCN(CC)[P+](c1ccccc1O)(N(CC)CC)N(CC)CC` , report its measured growth inhibition.
Out: 53

In: Return reported growth inhibition; argument: `COc1ccc(N=C2C(=O)Nc3ccc(Br)cc32)cc1`
Out: -39

In: # get_value(readout='growth inhibition', item= `Cc1ccc(N)c(S)c1` )
Out: -22

In: Query: growth inhibition; subject: `Cn1c(=O)c2ccccc2c2ccccc21`
Out: 31

// switching to the query compound
In: # input compound: `COc1cc2ccc(/C=C\[N+](=O)[O-])cc2cc1OC` ; wanted: its growth inhibition
Out: 18

###

# assay remarks: NCI Yeast Anticancer Drug Screen. Data for the mgt1 strain (AID 153)
# setup conditions: S. cerevisiae mgt1 mutant growth inhibition; at 3.7 µM; hits give high values
This is part of a sample that, as a whole, favours compounds with a hit. Of some 79,000 tested, about 15% had one in any assay.
growth inhibition values by entry
Quick note: give the figure in %, leave out the unit.

In: What value of growth inhibition has been recorded for this entry: `[O-][n+]1c2ccc(O)cc2nc2ccc(Br)cc21`
Out: 21

In: Recorded growth inhibition of `Cc1ccc(-n2cc(-c3ccc(Cl)cc3)c(C#N)c2N)cc1` , please.
Out: -4

In: # query: growth inhibition of entry `COc1ccc2sc3cccc(NCCN(C)C)c3c(=O)c2c1`
Out: -3

###

# assay remarks: NCI Yeast Anticancer Drug Screen. Data for the rad18 strain (AID 177)
# setup conditions: S. cerevisiae rad18 mutant growth inhibition; at 11.0 µM
Compounds without any hit were thinned out: in the full panel of roughly 79,000, 15% have a hit. The source made the active and inactive calls. Cut-off read from the data, not from the text of the source: active = growth inhibition above about 70%; inactive = the rest.
Reply using exactly one outcome from T for active, F for inactive

A selection of reference data follows.
In: Name the outcome recorded for `CC1=NN(c2cccc(Cl)c2)C(=O)C1` in the assay.
Out: F

In: Outcome? `O=C(COC(=O)c1cc(O)c(O)c(O)c1)c1ccc(-c2ccccc2)cc1`
Out: F

In: Tell me the assay call for `CCCCCCCCCCC(=O)Cl` please.
Out: F

New cases:
In: Answer briefly: the call reported for `COc1ccccc1/C=C1\Sc2scc(-c3cccc([N+](=O)[O-])c3)[n+]2C1=O` in this assay.
Out: T
